Origin of the recorded values: the Human Domainome abundance scans (Beltran et al. 2025)

B1: DNA topoisomerase 3-alpha, residues 812 to 851; numbered along this chain, Q13472 (parent)
chain: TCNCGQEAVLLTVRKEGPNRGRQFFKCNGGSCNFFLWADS

Variants of: B1
Experiment: abundance fitness (aPCA) (normalised: wild type 0, dead -1); higher = more abundant; growth selection in yeast, the domain comes from the species named
Details: Homo sapiens
endpoint: abundance fitness
API note: the answer field is a bare number with no unit suffix.

Using known records, supply abundance fitness for TCNCGQEAVLLTVRKEGPNRGRQFFKCSGGSCNFFLWADS [N28S] -0.09

Consider the variant TCNCGQEAVLLTVRKEGPNRGRQFFKCNGGDCNFFLWADS [S31D] and give its recorded abundance fitness. 0.077

Output abundance fitness of TCNCGQEAVLLTVRKEGPNRGRQFFKCNGGSCNFLLWADS [F35L] -0.444
